system: HCT116 MTAP KO cells; experiment: Inhibitory activity against cell proliferation (CellTiter Glo, 6 days), HCT116 MTAP KO; type: cell-based; conditions: ratio of IC50 HCT116-WT / HCT116 MTAP KO
Each entry below carries its recorded Selectivity HCT 116-WT/ HCT116 MTAP KO.

{"COMPOUND": "Cc1cc2cc(C(=O)N(Cc3ccc(C(F)(F)F)cn3)N(C)c3c(F)ccc4nccnc34)ccc2nc1N [Example 125]", "Selectivity HCT 116-WT/ HCT116 MTAP KO": 27.54}
{"COMPOUND": "Cc1cc2cc(C(=O)N(Cc3ccc(-c4cnn(C)n4)cn3)N(C)c3ncccn3)ccc2nc1N [Example 228]", "Selectivity HCT 116-WT/ HCT116 MTAP KO": 25.92}
{"COMPOUND": "C=C(C)c1cccnc1N(C)N(Cc1ccc(C(F)(F)F)cn1)C(=O)c1ccc2nc(N)c(C)cc2c1 [Example 135]", "Selectivity HCT 116-WT/ HCT116 MTAP KO": 12.75}
{"COMPOUND": "[2H]C([2H])([2H])c1cc2cc(C(=O)N(Cc3ccc(C(F)(F)F)cn3)N(c3ncccn3)C3CC3)ccc2nc1N [Example 314]", "Selectivity HCT 116-WT/ HCT116 MTAP KO": 23.58}
{"COMPOUND": "CN(c1ncccc1F)N(Cc1ccc(C(F)(F)F)cn1)C(=O)c1ccc2nc(N)c3cnn(C)c3c2c1 [Example 74]", "Selectivity HCT 116-WT/ HCT116 MTAP KO": 20.45}
{"COMPOUND": "[2H]C([2H])([2H])c1cc2cc(C(=O)N(Cc3ccc(C(F)(F)F)cn3)N(C)c3nccc4nccnc34)ccc2nc1N [Example 313]", "Selectivity HCT 116-WT/ HCT116 MTAP KO": 13.37}
{"COMPOUND": "Cn1ncc2c(N)nc3cc(Cl)c(C(=O)N4CC(CF)CN4c4ncccc4F)cc3c21 (stereo not shown) [Example 359]", "Selectivity HCT 116-WT/ HCT116 MTAP KO": 23.50}

====

Each entry below carries its recorded pIC50.
target: PRMT5-MTA (Homo sapiens); experiment: Enzymatic inhibitory activity against PRMT5-MTA (AlphaScreen); assay type: biochemical; conditions: read-out: IC50
Sequence (O14744 whole entry): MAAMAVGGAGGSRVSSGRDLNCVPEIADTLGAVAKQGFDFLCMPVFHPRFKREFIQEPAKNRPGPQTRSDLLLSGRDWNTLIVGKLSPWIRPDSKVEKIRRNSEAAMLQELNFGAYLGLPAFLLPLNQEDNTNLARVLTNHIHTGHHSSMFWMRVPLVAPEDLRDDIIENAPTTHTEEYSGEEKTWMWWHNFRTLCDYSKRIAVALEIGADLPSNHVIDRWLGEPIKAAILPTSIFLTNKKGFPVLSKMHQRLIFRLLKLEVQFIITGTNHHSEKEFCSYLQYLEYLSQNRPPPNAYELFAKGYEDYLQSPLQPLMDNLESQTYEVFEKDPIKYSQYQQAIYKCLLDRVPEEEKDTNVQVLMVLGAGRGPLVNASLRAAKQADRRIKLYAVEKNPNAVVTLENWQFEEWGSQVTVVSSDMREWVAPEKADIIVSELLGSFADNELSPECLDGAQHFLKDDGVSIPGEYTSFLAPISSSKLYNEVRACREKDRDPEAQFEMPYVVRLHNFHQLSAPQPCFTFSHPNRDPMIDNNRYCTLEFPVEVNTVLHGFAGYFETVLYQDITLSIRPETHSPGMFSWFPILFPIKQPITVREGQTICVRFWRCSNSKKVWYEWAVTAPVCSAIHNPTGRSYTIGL
Sequence (Q9BQA1 whole entry partner): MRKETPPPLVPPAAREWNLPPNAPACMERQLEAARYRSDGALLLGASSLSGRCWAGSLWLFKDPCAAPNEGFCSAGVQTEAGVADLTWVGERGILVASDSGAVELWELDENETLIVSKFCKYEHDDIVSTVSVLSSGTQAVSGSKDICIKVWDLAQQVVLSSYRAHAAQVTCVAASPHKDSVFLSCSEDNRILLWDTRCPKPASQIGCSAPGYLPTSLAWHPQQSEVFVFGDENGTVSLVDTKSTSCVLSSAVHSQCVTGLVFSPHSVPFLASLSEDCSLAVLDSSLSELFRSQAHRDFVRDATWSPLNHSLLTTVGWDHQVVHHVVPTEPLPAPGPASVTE
pIC50: −log10 of the molar value.

{"MOLECULE": "CCc1cc2nc(N)c3cnn(C)c3c2cc1C(=O)N1CCCN1c1ccc(C(F)(F)F)cn1 [Example 496]", "pIC50": 8.47}
{"MOLECULE": "CN(c1ncccn1)N(Cc1ccc(C(F)(F)F)cn1)C(=O)c1ccc2nc(N)c(C3CC3)cc2c1 [Example 25]", "pIC50": 8.70}
{"MOLECULE": "COC1(c2ccc(CN(C(=O)c3ccc4nc(N)c(C)cc4c3)N(C)c3ncccn3)nc2)COC1 [Example 284]", "pIC50": 8.64}
{"MOLECULE": "Cc1cc2nc(N)c3cnn(C)c3c2cc1C(=O)N1CC(C)CN1c1ccccc1Cl (stereo not shown) [Example 382]", "pIC50": 8.32}
{"MOLECULE": "CCn1ncc2c(N)nc3cc(C)c(C(=O)N4CC(C)CN4c4ncccc4F)cc3c21 (stereo not shown) [Example 503]", "pIC50": 8.28}
{"MOLECULE": "Cc1cc2cc(C(=O)N3CCCN3c3ccc(C(F)(F)F)cn3)ccc2nc1N [Example 337]", "pIC50": 7.23}
{"MOLECULE": "Cc1cc2cc(C(=O)N(Cc3ccc(C(C)(F)F)cn3)N(C)c3ncccn3)ccc2nc1N [Example 291]", "pIC50": 8.41}
{"MOLECULE": "Cc1cc2nc(N)c3cnn(C)c3c2cc1C(=O)N1CCCN1c1ccc(C(F)(F)F)cn1 [Example 338]", "pIC50": 8.55}
{"MOLECULE": "COC1CN(C(=O)c2cc3c(cc2Cl)nc(N)c2cnn(C)c23)N(c2ncccc2F)C1 (stereo not shown) [Example 444]", "pIC50": 8.43}
{"MOLECULE": "Cc1cc2cc(C(=O)N(Cc3ccc(C(F)(F)F)cn3)N(c3nccc4nccnc34)C3CC3)ccc2nc1N [Example 65]", "pIC50": 8.40}
{"MOLECULE": "Cc1cc2nc(N)c3cnn(C)c3c2cc1C(=O)N1CC(OCC(F)(F)F)CN1c1ncccc1F (stereo not shown) [Example 452]", "pIC50": 8.14}
{"MOLECULE": "Cc1cc2cc(C(=O)N(Cc3ccc(-c4cc[nH]n4)cn3)N(C)c3ncccn3)ccc2nc1N [Example 142]", "pIC50": 8.39}
{"MOLECULE": "Cc1cc2cc(C(=O)N(Cc3ccc(C(F)(F)F)cn3)N(C)c3ncc(S(C)(=O)=O)cn3)ccc2nc1N [Example 96]", "pIC50": 8.59}
{"MOLECULE": "Cc1cc2cc(C(=O)N(Cc3ccc(-c4ccc(N)nc4)cn3)N(C)c3ncccn3)ccc2nc1N [Example 144]", "pIC50": 8.82}
{"MOLECULE": "Cc1cc2cc(C(=O)N(Cc3ccc(C(F)(F)F)cn3)N(C)c3nccc4cccnc34)ccc2nc1N [Example 91]", "pIC50": 8.54}
{"MOLECULE": "COC1CN(C(=O)c2cc3c(cc2C)nc(N)c2cnn(C)c23)N(c2ncc(Cl)cc2F)C1 (stereo not shown) [Example 441]", "pIC50": 8.14}
{"MOLECULE": "CN(C(=O)c1ccc2nc(N)c3c(c2c1)COC3)N(C)c1ccc(C(F)(F)F)cn1 [Example 55]", "pIC50": 8.34}
{"MOLECULE": "Cn1ncc2c(N)nc3ccc(C(=O)N4CCCN4c4ccc(C(F)(F)F)cn4)cc3c21 [Example 339]", "pIC50": 8.34}
{"MOLECULE": "[2H]C([2H])([2H])c1cc2cc(C(=O)N(Cc3ccc(-c4cnn(C)c4)cn3)N(C)c3ncccn3)ccc2nc1N [Example 166]", "pIC50": 8.32}
{"MOLECULE": "CN(c1ncccn1)N(Cc1ccc(C(F)(F)F)cn1)C(=O)c1ccc2nc(N)c3ccncc3c2c1 [Example 78]", "pIC50": 8.70}
{"MOLECULE": "Cc1cc2cc(C(=O)N(Cc3ccc(-c4cn[nH]c4)cn3)N(C)c3ncccn3)ccc2nc1N [Example 200]", "pIC50": 8.77}
{"MOLECULE": "Cc1cc2nc(N)c3cnn(C)c3c2cc1C(=O)N1CC(C)CN1c1cc(F)ccc1F (stereo not shown) [Example 335]", "pIC50": 8.48}
{"MOLECULE": "COC1CN(C(=O)c2cc3c(cc2Cl)nc(N)c2cnn(C)c23)N(c2cccc(F)n2)C1 (stereo not shown) [Example 448]", "pIC50": 8.29}
{"MOLECULE": "CCC1(F)CN(C(=O)c2cc3c(cc2C)nc(N)c2cnn(C)c23)N(c2ncccc2F)C1 (stereo not shown) [Example 423]", "pIC50": 8.17}
{"MOLECULE": "Cc1cc2nc(N)c3cnn(C)c3c2cc1C(=O)N1CC(C)CN1c1ncccc1F (stereo not shown) [Example 328]", "pIC50": 8.19}
{"MOLECULE": "Cc1cc2cc(C(=O)N(Cc3ccc(-c4cnn(C)c4)cn3)N(C)c3ncccc3F)ccc2nc1N [Example 179]", "pIC50": 8.47}
{"MOLECULE": "Cc1cc2cc(C(=O)N(Cc3ccc(C4=CCCOC4)cn3)N(C)c3ncccn3)ccc2nc1N [Example 187]", "pIC50": 8.64}
{"MOLECULE": "Cc1ccnc(N(C)N(Cc2ccc(C(F)(F)F)cn2)C(=O)c2ccc3nc(N)c(C)cc3c2)n1 [Example 49]", "pIC50": 8.66}
{"MOLECULE": "Cc1cc2cc(C(=O)N(Cc3ccc4ncccc4n3)N(C)c3ncccn3)ccc2nc1N [Compound 283]", "pIC50": 8.77}
{"MOLECULE": "Cc1cc2nc(N)c3cnn(C)c3c2cc1C(=O)N1CC(C)CN1c1ncc(-c2nncs2)cc1F (stereo not shown) [Example 487]", "pIC50": 8.17}
{"MOLECULE": "Cn1ncc2c(N)nc3cc(Cl)c(C(=O)N4CC5(CC5)CN4c4ncc(Br)cc4F)cc3c21 [Example 345]", "pIC50": 8.36}
